Collected shrunken log2 fold change values appear next to each entry.
# System: Escherichia coli TOP10
# measurement notes: shrunken log2 fold change of peptide-encoding DNA abundance (4.5 h post-induction vs induction); higher = less antimicrobial activity (less host growth inhibition)
# condition info: time post-induction: 4.5 h; library: site-saturation at positions 5, 18, 19, 20

Below: 2 sequences and their reported shrunken log2 fold change.
| sequence record | measurement type | measurement |
| --- | --- | --- |
| RRIRPRPPRLPRPRPRPAGCPRP | shrunken log2 fold change | 0.386 |
| RRIRERPPRLPRPRPRPRYEPRP | shrunken log2 fold change | -0.276 |

Please find the next sequence below.
Provide shrunken log2 fold change, tested on Escherichia coli TOP10, for RRIRPRPPRLPRPRPRPHKMPRP .
-0.403

* * *

# Test system: Escherichia coli TOP10
# measurement notes: shrunken log2 fold change of peptide-encoding DNA abundance (4.5 h post-induction vs induction); higher = less antimicrobial activity (less host growth inhibition)
# condition info: time post-induction: 4.5 h; library: site-saturation at positions 5, 18, 19, 20
Note to self: class labels come from recorded shrunken log2 fold change, ranges listed here: LOW (below -0.2), MEDIUM (-0.2 to below 0.3), HIGH (0.3 or more)

| sequence record | system | qualitative label |
| --- | --- | --- |
| RRIRVRPPRLPRPRPRPNQWPRP | Escherichia coli TOP10 | LOW |
| RRIRGRPPRLPRPRPRPQHDPRP | Escherichia coli TOP10 | MEDIUM |
| RRIRFRPPRLPRPRPRPHLDPRP | Escherichia coli TOP10 | LOW |
| RRIRGRPPRLPRPRPRPACRPRP | Escherichia coli TOP10 | HIGH |

Tag the class for RRIRCRPPRLPRPRPRPKDTPRP
HIGH

Assign a category based on measured shrunken log2 fold change for RRIRHRPPRLPRPRPRPPAPPRP and give only the class name.
HIGH

Category lookup for the sequence RRIRTRPPRLPRPRPRPCRPPRP
LOW

Please indicate the class for RRIRCRPPRLPRPRPRPVCDPRP based on its shrunken log2 fold change.
LOW

Place this sequence in its band: RRIRHRPPRLPRPRPRPLCPPRP
MEDIUM

For the record RRIRWRPPRLPRPRPRPWFSPRP , report the class its shrunken log2 fold change corresponds to.
MEDIUM

Which class holds RRIRVRPPRLPRPRPRPNFQPRP ?
MEDIUM

Each sequence maps to one class by shrunken log2 fold change. Which class for RRIRCRPPRLPRPRPRPQLMPRP ?
MEDIUM

Place this sequence in its band: RRIRRRPPRLPRPRPRPDVGPRP
MEDIUM

GET /class?item= RRIRARPPRLPRPRPRPACEPRP
HIGH

For this sequence, which bin applies? RRIRRRPPRLPRPRPRPKCQPRP
HIGH

Into which category would you place RRIRHRPPRLPRPRPRPYQQPRP ?
MEDIUM

Class (by measured shrunken log2 fold change) for RRIRARPPRLPRPRPRPMAPPRP
MEDIUM

For the record RRIRTRPPRLPRPRPRPNHIPRP , report the class its shrunken log2 fold change corresponds to.
LOW

* * *

# Tested on: Escherichia coli TOP10;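 also: peptides expressed intracellularly from a pBAD plasmid library in pooled LB shake-flask culture, induced with 0.3% L-arabinose, DNA abundance read by NGS, three biological replicates, DESeq2 with apeglm shrinkage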
# measurement notes: shrunken log2 fold change of peptide-encoding DNA abundance (4.5 h post-induction vs induction); higher = less antimicrobial activity (less host growth inhibition)
# condition info: time post-induction: 4.5 h; library: site-saturation at positions 5, 18, 19, 20
Please use met whenever shrunken log2 fold change is not below -0.2, and not met whenever it is.

| sequence record | qualitative label |
| --- | --- |
| RRIRYRPPRLPRPRPRPWRMPRP | not met |

Textbook exercise: given the entry RRIRNRPPRLPRPRPRPKTEPRP , state whether its shrunken log2 fold change is greater than or equal to -0.2.
met

Is shrunken log2 fold change at least -0.2? Consider RRIRIRPPRLPRPRPRPLMTPRP
not met

Is reported shrunken log2 fold change greater than or equal to -0.2 here: RRIRFRPPRLPRPRPRPATIPRP
not met

# check: shrunken log2 fold change of RRIRQRPPRLPRPRPRPINWPRP is greater than or equal to -0.2
met
